Items are presented alongside their recorded Inhibition.
Test system: Staphylococcus aureus
Condition Info: Concentration 32 ug.mL-1; ASSAY_TEST Inhibition of Bacterial Growth; detection method Absorption (OD600); MEDIA CAMHB; plate type 384well; NBS; CORNING #3640; time 18 hr
Description: Antibacterial activity against Staphylococcus aureus MRSA ATCC 43300 (CO-ADD:GP_020); MIC in CAMBH media, using NBS plates, by OD(600)
Entries with a potency or affinity are not part of this list.
Answers without a unit are incomplete; give the number and then its unit.

Note to self: Inhibition of CC(C)(C)[Si](C)(C)OCC1C2C[C@H]3C1[C@@H]3/C2=N/NC(=O)c1ccncc1 (some centres not stated) with Staphylococcus aureus was 14.57%

Note to self: Inhibition of "O=C(NNC(=O)c1ccc([N+](=O)[O-])cc1C(=O)O)c1ccncc1" with Staphylococcus aureus was 30.83%

====

Tested on: Escherichia coli
Condition Info: Concentration 32 ug.mL-1; ASSAY_TEST Inhibition of Bacterial Growth; detection method Absorption (OD600); MEDIA CAMHB; plate type 384well; NBS; CORNING #3640; time 18 hr
Description: Antibacterial activity against Escherichia coli ATCC 25922 (CO-ADD:GN_001); MIC in CAMBH media using NBS plates, by OD(600)
Entries with a potency or affinity are not part of this list.
Items are presented alongside their recorded Inhibition.
I only need the number, in %, no unit after it.

Study these solved cases before continuing.
Molecule: O=C1C[C@@H]2[C@@H](C=NNC(=O)c3ccncc3)[C@@H](C[C@H]2Cl)O1
Unit Tag: %
Inhibition: 18.72

Molecule: O=C(NN=CC[C@H]1[C@H](CO)[C@@H](O)C[C@H]1O)c1ccncc1
Unit Tag: %
Inhibition: 12.24

Molecule: O=C(N/N=C1\C[C@@H]2[C@@H](CO)[C@H]1C[C@H]2Cl)c1ccncc1
Unit Tag: %
Inhibition: 15.81

Molecule: O=C(N/N=C1\CC[C@@H]2[C@H]1[C@H](OC(=O)c1ccccc1)C[C@@H]2OC(=O)c1ccccc1)c1ccncc1
Unit Tag: %
Inhibition: 14.7

Molecule: O=C(NN=CC[C@@H]1[C@@H](/C=C/[C@@H](O)CCc2ccccc2)[C@H](OC(=O)c2ccccc2)C[C@@H]1O)c1ccncc1
Unit Tag: %
Inhibition: 8.83

Looking up CC(C)(C)[Si](C)(C)OCC1C2C[C@H]3C1[C@@H]3/C2=N/NC(=O)c1ccncc1 (stereo partly specified) , I found its Inhibition recorded as 8.28

====

System: Escherichia coli
Condition Info: Concentration 32 ug.mL-1; ASSAY_TEST Inhibition of Bacterial Growth; detection method Absorption (OD600); MEDIA CAMHB; plate type 384well; NBS; CORNING #3640; time 18 hr
Measured potencies and affinities stand elsewhere.
Threshold rule: Inhibition greater than or equal to 10% is MET; below that, NOT MET.

Compound: CC(C)(C)[Si](C)(C)OC[C@H]1[C@H](CC=NNC(=O)c2ccncc2)[C@H](O)C[C@@H]1O[Si](C)(C)C(C)(C)C
Class Name: MET
//
Compound: O=C(N/N=C/C[C@@H]1[C@@H](/C=C/[C@@H](O)COc2ccccc2)[C@H](O)C[C@@H]1O)c1ccncc1
Class Name: MET

Is reported Inhibition greater than or equal to 10% here: "O=C(NNC(=O)c1cccc([N+](=O)[O-])c1C(=O)O)c1ccncc1"
MET

Is reported Inhibition greater than or equal to 10% here: "O=C(ON/N=C/[C@@H]1[C@@H]2C[C@H](Cl)[C@H]1C[C@H]2O)c1ccncc1"
MET

Is reported Inhibition greater than or equal to 10% here: "O=C(NNC(=O)c1ccc([N+](=O)[O-])cc1C(=O)O)c1ccncc1"
MET

Is reported Inhibition greater than or equal to 10% here: "O=C1C[C@H]2[C@H](/C=N/NC(=O)c3ccncc3)[C@H](C[C@@H]2Cl)O1"
MET

Is reported Inhibition greater than or equal to 10% here: "O=C(N/N=C/COc1cccc(Cl)c1)c1ccncc1"
NOT MET

Is reported Inhibition greater than or equal to 10% here: "CC(C)(C)[Si](C)(C)O[C@H](/C=C/[C@@H]1[C@@H](CC=NNC(=O)c2ccncc2)[C@@H](O)C[C@H]1O[Si](C)(C)C(C)(C)C)CCc1ccccc1"
NOT MET

====

Tested on: Staphylococcus aureus
Condition Info: Concentration 32 ug.mL-1; ASSAY_TEST Inhibition of Bacterial Growth; detection method Absorption (OD600); MEDIA CAMHB; plate type 384well; NBS; CORNING #3640; time 18 hr
Results with a measured potency or affinity are listed apart.
Items are presented alongside their recorded Inhibition.
I only need the number, in %, no unit after it.

Study these solved cases before continuing.
Molecule: O=C(N/N=C1/C2C[C@H]3C(C2CO)[C@H]13)c1ccncc1 (stereo not given in full)
Reported Measurement: 21.76
--
Molecule: O=C(N/N=C1\C[C@@H]2[C@@H](CO)[C@H]1C[C@H]2Cl)c1ccncc1
Reported Measurement: 26.12
--
Molecule: O=C1C[C@H]2[C@H](/C=N/NC(=O)c3ccncc3)[C@H](C[C@@H]2Cl)O1
Reported Measurement: 34.06
--
Molecule: O=C(NNC(=O)[C@@H]1C[C@H](C(=O)O)[C@@H]2CC=C[C@@H]21)c1ccncc1
Reported Measurement: 32.09

Looking up "CC(C)(C)[Si](C)(C)O[C@H](/C=C/[C@@H]1[C@@H](CC=NNC(=O)c2ccncc2)[C@@H](O)C[C@H]1O[Si](C)(C)C(C)(C)C)CCc1ccccc1" , I found its Inhibition recorded as 11.86

Looking up "O=C(N/N=C/COc1cccc(Cl)c1)c1ccncc1" , I found its Inhibition recorded as 8.36

Looking up "COC(=O)CCCCCC[C@@H]1[C@@H](/C=N/NC(=O)c2ccncc2)[C@H](O)C[C@@H]1O" , I found its Inhibition recorded as 12.62

Looking up "O=C(N/N=C1\C[C@@H]2[C@H](COC(c3ccccc3)(c3ccccc3)c3ccccc3)C[C@H](CO)[C@@H]2C1)c1ccncc1" , I found its Inhibition recorded as 13.89

Looking up "O=C(NN=CC[C@@H]1[C@@H](/C=C/[C@@H](O)CCc2ccccc2)[C@H](OC(=O)c2ccccc2)C[C@@H]1O)c1ccncc1" , I found its Inhibition recorded as 18.76

Looking up "COC(=O)C[C@H]1[C@H](/C=N\NC(=O)c2ccncc2)[C@@H](O[Si](C)(C)C(C)(C)C)C[C@@H]1Cl" , I found its Inhibition recorded as 29.13

Looking up O=C(NN=CC[C@@H]1[C@@H](COC2CCCCO2)[C@H](OC2CCCCO2)C[C@@H]1O)c1ccncc1 (stereo not given in full) , I found its Inhibition recorded as 12.15

Looking up "O=C(NNC(=O)[C@@H]1C[C@H](C(=O)O)[C@@H]2CCC[C@@H]21)c1ccncc1" , I found its Inhibition recorded as 31.35

Looking up O=C(NN=C[C@H]1[C@H]2CC(O)OC[C@H]2C[C@H]1O)c1ccncc1 (stereo not given in full) , I found its Inhibition recorded as 15.22

Looking up "O=C(N/N=C1/C[C@H]2[C@H](CO)[C@@H]1C[C@@H]2Cl)c1ccncc1" , I found its Inhibition recorded as 26.26

Looking up "O=C(N/N=C/C[C@@H]1[C@@H](/C=C/[C@@H](O)COc2cccc(Cl)c2)[C@H](O)C[C@@H]1O)c1ccncc1" , I found its Inhibition recorded as 27.05

====

Tested on: Escherichia coli
Condition Info: Concentration 32 ug.mL-1; ASSAY_TEST Inhibition of Bacterial Growth; detection method Absorption (OD600); MEDIA CAMHB; plate type 384well; NBS; CORNING #3640; time 18 hr
Potency and affinity values are given separately.
Threshold rule: Inhibition greater than or equal to 6% is MET; below that, NOT MET.

Is reported Inhibition greater than or equal to 6% here: O=C(NN=C[C@H]1[C@H]2CC(O)OC[C@H]2C[C@H]1O)c1ccncc1 (stereo not given in full)
NOT MET

Is reported Inhibition greater than or equal to 6% here: O=C(N/N=C1/C2C[C@H]3C(C2C(=O)O)[C@@H]13)c1ccncc1 (stereo not given in full)
MET

Is reported Inhibition greater than or equal to 6% here: "O=C(N/N=C/C[C@@H]1[C@@H](/C=N/NC(=O)c2ccncc2)[C@H](O)C[C@@H]1O)c1ccncc1"
MET

Is reported Inhibition greater than or equal to 6% here: "O=C(N/N=C1/C[C@@H]2[C@H](C1)[C@H](OC(=O)c1ccccc1)C[C@@H]2OC(=O)c1ccccc1)c1ccncc1"
MET

Is reported Inhibition greater than or equal to 6% here: "O=C(N/N=C1/C[C@H]2[C@H](CO)[C@@H]1C[C@@H]2Cl)c1ccncc1"
MET

Is reported Inhibition greater than or equal to 6% here: O=C(N/N=C1/C2C[C@H]3C(C2CO)[C@H]13)c1ccncc1 (stereo not given in full)
MET

Is reported Inhibition greater than or equal to 6% here: "O=C(N/N=C1\C[C@@H]2[C@H](COC(c3ccccc3)(c3ccccc3)c3ccccc3)C[C@H](CO)[C@@H]2C1)c1ccncc1"
MET

Data credit: ChEMBL document CHEMBL4513156
